Hello, the source for this data is PubChem BioAssay AID1159580, in case you need it.

- Test Description: chemical genetic growth profiling, strain panel (AID 1159580);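 also: tested at 20 µM; growth read once vehicle control cultures reached saturation at 30 °C; 1 = growth at the plate median or of vehicle wells; lower values mean less growth of the strain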
- Run Parameters: S. cerevisiae deletion strains, growth OD, locus YLL001W, strain dnm1, hits give low values
The campaign covered roughly 5,500 compounds. About 2,000 (36%) were called active. Another 18% or so got no clear call; they are omitted. The list shows a part of the results. Where a SMILES comes first, the peptide text is derived from it.
Answer each item with its documented normalized growth.
Format: numeric value only, no unit, no commentary.

(Q) Could you share which normalized growth value was measured for CC1O[C@@H](Oc2c(-c3ccc(O)c(O)c3)oc3cc(O)cc(O)c3c2=O)[C@H](O)[C@H](O)[C@H]1O (stereo partly specified) ?
(A) 0.986

(Q) Could you share which normalized growth value was measured for COc1cc(O)c2c(=O)c(O)c(-c3ccc(O)c(O)c3)oc2c1 ?
(A) 0.782

(Q) Could you share which normalized growth value was measured for COc1ccc(-c2oc3c(CC=C(C)C)c(O[C@@H]4O[C@H](CO)[C@@H](O)[C@H](O)[C@H]4O)cc(O)c3c(=O)c2O[C@@H]2O[C@@H](C)[C@H](O)[C@@H](O)[C@H]2O)cc1 ?
(A) 1.01

(Q) Could you share which normalized growth value was measured for COc1ccc(-c2oc3cc(O[C@H]4O[C@H](CO)[C@@H](O)[C@H](O)[C@H]4O)c(OC)c(O)c3c(=O)c2OC)cc1O ?
(A) 0.994

(Q) Could you share which normalized growth value was measured for NC(=O)NCCCC(N)C(=O)O (stereo unspecified) ?
(A) 1

(Q) Could you share which normalized growth value was measured for COC(=O)[C@H](Cc1ccccc1)NC(=O)[C@@H](N)CC(=O)O (H-Asp-Phe-OMe) ?
(A) 1.01

(Q) Could you share which normalized growth value was measured for CC1CCC2(OC1)OC1CC3C4CC[C@H]5C[C@@H](O)CC[C@]5(C)C4CC(=O)[C@]3(C)C1C2C (stereo partly specified) ?
(A) 0.987

(Q) Could you share which normalized growth value was measured for C[C@@H]1CC[C@@]2(OC1)OC1CC3C4CC=C5C[C@@H](O)CC[C@]5(C)C4CC[C@]3(C)C1[C@@H]2C (stereo partly specified) ?
(A) 0.997

(Q) Could you share which normalized growth value was measured for O=C(Cc1cccs1)NC1C(=O)N2C(C(=O)[O-])=C(C[n+]3ccccc3)CSC12 (stereo unspecified) ?
(A) 0.979

(Q) Could you share which normalized growth value was measured for C[C@@H]1O[C@@H](OC[C@H]2OC(Oc3c(-c4ccc(OCCO)c(OCCO)c4)oc4cc(OCCO)cc(O)c4c3=O)[C@H](O)[C@@H](O)[C@@H]2O)[C@H](O)[C@H](O)[C@H]1O (stereo partly specified) ?
(A) 0.963

(Q) Could you share which normalized growth value was measured for CC1CC[C@]2(NC1)O[C@H]1CC3C4CC[C@H]5C[C@@H](O)CC[C@]5(C)C4CC[C@]3(C)[C@H]1[C@@H]2C (stereo partly specified) ?
(A) 0.109

(Q) Could you share which normalized growth value was measured for COc1cc(OC)c2c(=O)c(OC)c(-c3ccc(OC)c(OC)c3)oc2c1 ?
(A) 1.03

(Q) Could you share which normalized growth value was measured for C[C@@H]1CC[C@@]2(OC1)O[C@H]1CC3C4CC[C@H]5C[C@@H](O)CC[C@]5(C)C4CC[C@]3(C)[C@H]1[C@@H]2C (stereo partly specified) ?
(A) 1

(Q) Could you share which normalized growth value was measured for C[C@]12CCC3c4ccc(O)cc4CCC3C1CC[C@@H]2O (stereo partly specified) ?
(A) 1.02

(Q) Could you share which normalized growth value was measured for O=c1c(O)c(-c2ccc(O)c(O)c2)oc2c(O[C@@H]3O[C@H](CO)[C@H](O)[C@@H](O)[C@H]3O)c(O)cc(O)c12 ?
(A) 0.989

(Q) Could you share which normalized growth value was measured for NC(=O)c1ncn([C@@H]2O[C@H](CO)[C@@H](O)[C@H]2O)n1 ?
(A) 0.984
